System: Plasmodium berghei
assayComment: Screen against P. berghei liver stage (PbLuc), transformed with Luciferase, at 10uM
Assay type: functional, HepG2
settings: tested at 10 uM
About 8,600 (12%) of roughly 69,000 compounds showed an effect of 50% or more. This excerpt belongs to a sample that is enriched for strong results.
assayMetric: INHIBITION (%)
One number for each entry, in %.

CN1CCCC(CNS(=O)(=O)N2CCc3ccccc3C2)C1 (stereo not drawn) = 57.8
O=S(=O)(NCC1COc2ccccc2C1)N1CCCC1 (stereo not drawn) = -30
Cc1nnc(N2CC[C@@H](OCC3CC3)[C@@H](Cc3ccccc3)C2)s1 = 92.5
O=C(NCCn1ccnc1-c1cc2n(n1)CCNC2)c1ccncc1 = 62.4
CO[C@H]1CCN(c2nnc(C)s2)C[C@@H]1Cc1ccccc1 = -13.7

Give measured INHIBITION for every item shown.
1. O=S(=O)(NCC1COc2ccccc2C1)N1CCCCC1 (stereo not drawn)
2. O=C(NCCn1ccnc1-c1cc2n(n1)CCCNC2)c1ccncc1
3. Cc1ccc(C(NC(=O)C2CCC(O)CC2)c2cccnc2)cc1C (stereo not drawn)
4. CC(=O)N1CC(=O)N(c2ccsc2)CC12CCN(Cc1ccoc1)C2 (stereo not drawn)
5. CCc1ccc(C(=O)Nc2cc(N3CCNC3=O)ccc2Cl)o1
6. Cn1cc(CN2CCc3onc(C(=O)Nc4cccnc4)c3C2)cn1
7. CCCc1cc(NC(=O)c2ccc(Cl)c(N3CCNC3=O)c2)n[nH]1
8. Cc1occc1C(=O)N1CCC2(CC1)NC(=O)CC2c1cnn(C)c1 (stereo not drawn)

1. -7.71
2. 32
3. 7.84
4. -3.58
5. 32.9
6. 43.4
7. -26.4
8. 42.1

Give measured INHIBITION for every item shown.
1. CCCn1nccc1NC(=O)c1ccc(Cl)c(N2CCNC2=O)c1
2. CC(=O)N1C[C@H]2CC[C@@H](C1)N(S(=O)(=O)c1ccc(F)cc1Cl)C2
3. Cc1ncc(CNC(=O)NC2CCN(C3CCCC3)CC2)s1
4. COc1ccc(C[C@H]2CN(c3nnc(C)s3)CC[C@@H]2OC)cc1
5. Cc1nnc(N2CC[C@H](OCC3CC3)[C@@H](Cc3ccccc3)C2)s1
6. O=S1(=O)c2ccccc2OCC2(CCN(CCO)CC2)CN1CC1CC1
7. CCCC(=O)NCCc1nc2cc(-c3ccc(OC)cc3)ncn2n1
8. O=C(NCCn1ccnc1-c1cc2n(n1)CCNC2)c1ccc(F)cc1

[57, -10.2, -53.6, -3.83, 41.4, -8.94, -3, 8.08]

Give measured INHIBITION for every item shown.
1. O=C(CC1[C@H]2CN(C(=O)c3cccnc3)C[C@@H]12)Nc1cccnc1 (stereo partly drawn)
2. O=C(Cc1csc(-c2ccccc2)n1)N[C@@H](C(=O)O)c1ccccc1

34.6
-3.11

---

Tested on: Plasmodium berghei
assayComment: Screen against P. berghei liver stage (PbLuc), transformed with Luciferase, at 10uM
Assay type: functional, HepG2
settings: tested at 10 uM
The campaign covered roughly 69,000 compounds. About 8,600 (12%) showed an effect of 50% or more. The entries come from a sample that favours strong results as a whole.
assayMetric: INHIBITION (%)
Answers are plain numbers, in %.

O=C1NCCN1C1CCCN(Cc2nnc(-c3ccc(F)cc3)o2)C1 (stereo unspecified) = 20.1

Give measured INHIBITION for every item shown.
1. O=C1NCCCCC1SCc1coc(-c2ccc(F)cc2)n1 (stereo unspecified)
2. Fc1ccc(-c2nc(CN3CCn4c(nnc4C4CC4)C3)co2)cc1
3. O=C1NCCN1C1CCCN(Cc2coc(-c3ccc(F)cc3)n2)C1 (stereo unspecified)
4. O=C1NCCCCC1SCc1coc(-c2cccc(F)c2)n1 (stereo unspecified)
5. O=C1NCCN1C1CCN(Cc2coc(-c3ccc(F)cc3)n2)CC1

[82.7, -21.7, 75.2, -16.1, 52.5]

---

Test system: Plasmodium berghei
assayComment: Screen against P. berghei liver stage (PbLuc), transformed with Luciferase, at 10uM
Format: functional, HepG2
settings: tested at 10 uM
The whole screen tested about 69,000 compounds, of which about 8,600 (12%) showed an effect of 50% or more. This excerpt belongs to a sample that is enriched for strong results.
assayMetric: INHIBITION (%)
Give bare numbers, in %.

Some molecules with recorded INHIBITION:
O=S(=O)(CC1CCOCC1)NCc1ccnc(O)c1 = 2.82
CC(=O)N1CCO[C@@H]2CN(C(=O)NCc3ccccc3)CC[C@@H]2C1 = 51.2
CCN(CC)c1ccc(CNC(=O)C2(C)CCOCC2)cc1F = -37.1
O=C(NCC1CC1)C1CCC2(CCN(C(=O)c3cccnc3)CC2)O1 (stereo unspecified) = 6.27
CC(C)(C)c1ncc(C(=O)NCCNC(=O)Cc2ccccc2)s1 = 45.7
CCN(C)c1ccc(CNS(=O)(=O)CC2CCCO2)cc1F (stereo unspecified) = 24.4
CC(=O)N1CCO[C@@H]2CN(C(=O)NCc3cccnc3)CC[C@@H]2C1 = 12.1
CCN(C)c1ccc(CNS(=O)(=O)C2CCOCC2)cc1F = 50.1
CCN1CC(O)CN(C(=O)c2ccc(SC)cc2)CC1=O (stereo unspecified) = 47.2
CC(NC(=O)NCCCc1n[nH]c(N)c1C#N)c1ccc(F)c(F)c1 (stereo unspecified) = -23.8

Moving on to another molecule below.
Which INHIBITION value belongs to `CCN(CC)c1ccc(CNS(=O)(=O)C2CCOCC2)cc1F` ?
62.9

---

Kindly state INHIBITION for each of the entries shown.
System: Plasmodium berghei
assayComment: Screen against P. berghei liver stage (PbLuc), transformed with Luciferase, at 10uM
Assay type: functional, HepG2
settings: tested at 10 uM
The whole screen tested about 69,000 compounds, of which about 8,600 (12%) showed an effect of 50% or more. This is one part of a sample in which strong results are shown more often than they occur.
Write the numeric value and append its unit.

Give measured INHIBITION for every item shown.
1. COCCN1CCC2(CC1)CC(NC(=O)COC)c1ccccc1O2 (stereo unspecified)
2. CC(C)(C)Cc1noc2ncc(C(=O)N3CCC3)cc12
3. c1ccc(CN2CCC3(CC2)CC(Oc2cccnc2)C3)nc1
4. COCCN1CCC2(CC1)CC(NC(=O)C1CC1)c1ccccc1O2 (stereo unspecified)
5. c1ccc(CO[C@H]2CO[C@@]3(CCN(Cc4ccoc4)C3)C2)nc1
6. c1ccc(OC2COC3(CCN(Cc4ccccn4)CC3)C2)cc1 (stereo unspecified)
7. c1ccc(CN2CCC3(CC2)CC(Nc2nccs2)CO3)nc1 (stereo unspecified)
8. O=C(NC1COC2(CCN(Cc3ccccn3)CC2)C1)c1ccccn1 (stereo unspecified)

1. -13.4%
2. 29%
3. 31.2%
4. 16.1%
5. 14.2%
6. 81.2%
7. 53.2%
8. -8.69%

Give measured INHIBITION for every item shown.
1. c1cnc(NC2COC3(CCN(Cc4ccoc4)CC3)C2)nc1 (stereo unspecified)
2. CC1CN(C)CCN1C(=O)c1cnc2onc(CC(C)(C)C)c2c1 (stereo unspecified)
3. c1ccc(CN2CC[C@]3(C[C@@H](Oc4ccccn4)CO3)C2)nc1

1. 3.25%
2. 53.9%
3. 31.3%

---

Tested on: Plasmodium berghei
assayComment: Screen against P. berghei liver stage (PbLuc), transformed with Luciferase, at 10uM
Assay type: functional, HepG2
settings: tested at 10 uM
Out of some 69,000 compounds screened, about 8,600 (12%) showed an effect of 50% or more. This excerpt belongs to a sample that is enriched for strong results.
Kindly state INHIBITION for each of the entries shown.
Numbers only, in %.

Some molecules with recorded INHIBITION:
Cc1ccc(C)c(-n2ncc(NC(=O)NC3(C)CCOC3)c2C)c1 (centres undefined) = 33.2
N#Cc1ccccc1CN(CCO)Cc1ccsc1 = 36.4
CN(C)Cc1nc(C(C)(C)NC(=O)c2ccnn2C)no1 = 57.6

Give measured INHIBITION for every item shown.
1. COc1cccc(OC)c1OCCN1C(=O)CCNC1=O
2. CC(C)Oc1ccccc1OCCN1C(=O)CCNC1=O
3. NC(=O)c1cnc2n1CCN(C(=O)c1ccc(Cn3cccc3)cc1)C2
4. CNC(=O)C1(CCCc2ccccn2)CCN1Cc1coc(C)n1 (centres undefined)
5. COc1cc(CNCc2ccc(-n3nc(C)cc3C)nc2)cc(OC)c1
6. CCN1C(=O)CCC12CCC(NC(=O)c1cnccn1)CC2 (centres undefined)

25.8
50.5
15.5
9.05
-10.193
-43

---

Test system: Plasmodium berghei
assayComment: Screen against P. berghei liver stage (PbLuc), transformed with Luciferase, at 10uM
Type: functional, HepG2
settings: tested at 10 uM
In all, about 69,000 compounds went through this assay and about 8,600 (12%) showed an effect of 50% or more. What follows is part of a selection rich in strong results, with near analogues and random picks from the rest.
assayMetric: INHIBITION
Write the numeric value and append its unit.

CCc1nccn1CCC(=O)N1CCCC1c1cncc(NC)n1 (stereo unspecified) = 2.365%
COCCC(=O)N1C[C@@H]2CC[C@H]1CN(C1Cc3ccccc3C1)C2 = -20.6%
O=C(CN1CCOc2ccccc2C1)NCc1cc2n(n1)CCCNC2 = 12.9%
O=C(NCCN1CCCCC1CO)c1cc(-c2ccccc2)on1 (stereo unspecified) = -7.81%
COc1ccc(OC)c(C2CCN(C(=O)C3CCOCC3)C2)c1 (stereo unspecified) = 50.1%

Which INHIBITION value belongs to `O=C(COc1ccc2c(c1)CCC2)NCc1ccco1` ?
33.2%
